# SYSTEM UNDER TEST: T1, human MSLN-R3-his protein (human, UniProt Q13421 487-598)
# T1 construct: Self-made in HEK293E cells; also called human MSLN-R3 protein; hMSLN-R3-his; not shown: His tag
# T1 sequence (Q13421 495-606): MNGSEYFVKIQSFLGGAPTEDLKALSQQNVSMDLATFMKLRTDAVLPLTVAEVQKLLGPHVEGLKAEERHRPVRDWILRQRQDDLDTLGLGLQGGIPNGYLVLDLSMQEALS
# ASSAY PROCEDURE: ELISA on coated antigen, antibody 0.01 nM
MEASURED QUANTITY: OD450 (OD450)
Express the result in OD450 but write the number alone.

These recorded examples may help you get a feel for the data.
>  <BINDER>
S009-F2.23.12 (antibody, human IgG1, kappa, V domains shown, Human-murine chimeric antibody: murine VH/VL on human IgG1 heavy and kappa light constant regions) VH: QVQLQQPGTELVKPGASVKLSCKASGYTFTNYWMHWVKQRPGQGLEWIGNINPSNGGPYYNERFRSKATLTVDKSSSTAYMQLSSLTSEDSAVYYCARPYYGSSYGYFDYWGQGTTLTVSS VL: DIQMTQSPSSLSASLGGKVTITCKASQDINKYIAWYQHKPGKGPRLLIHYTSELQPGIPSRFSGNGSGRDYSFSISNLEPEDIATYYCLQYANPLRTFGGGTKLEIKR

>  <MEASURED QUANTITY>
OD450

>  <OUTPUT UNIT>
OD450

>  <QUANTITATIVE READOUT>
0.05

$$$$
>  <BINDER>
S009-F2.21.4 (antibody, human IgG1, kappa, V domains shown, Human-murine chimeric antibody: murine VH/VL on human IgG1 heavy and kappa light constant regions) VH: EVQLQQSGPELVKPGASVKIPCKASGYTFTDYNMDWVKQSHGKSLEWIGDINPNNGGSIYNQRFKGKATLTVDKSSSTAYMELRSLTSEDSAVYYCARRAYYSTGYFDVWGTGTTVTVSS VL: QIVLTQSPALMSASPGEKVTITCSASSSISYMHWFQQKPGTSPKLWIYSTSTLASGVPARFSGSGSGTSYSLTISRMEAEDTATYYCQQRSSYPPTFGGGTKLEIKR

>  <MEASURED QUANTITY>
OD450

>  <OUTPUT UNIT>
OD450

>  <QUANTITATIVE READOUT>
0.05

$$$$
>  <BINDER>
S009-F2-56.12 (antibody, human IgG1, kappa, V domains shown, Human-murine chimeric antibody: murine VH/VL on human IgG1 heavy and kappa light constant regions) VH: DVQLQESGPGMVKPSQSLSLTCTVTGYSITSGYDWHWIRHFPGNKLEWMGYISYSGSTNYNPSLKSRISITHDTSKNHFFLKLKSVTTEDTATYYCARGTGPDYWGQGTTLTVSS VL: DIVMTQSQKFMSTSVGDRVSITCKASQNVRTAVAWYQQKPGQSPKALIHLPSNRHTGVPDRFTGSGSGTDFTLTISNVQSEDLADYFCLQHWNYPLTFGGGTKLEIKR

>  <MEASURED QUANTITY>
OD450

>  <OUTPUT UNIT>
OD450

>  <QUANTITATIVE READOUT>
0.05

$$$$

-- ask Specify measured OD450 for S009-F2.38.12 (antibody, human IgG1, kappa, V domains shown, Human-murine chimeric antibody: murine VH/VL on human IgG1 heavy and kappa light constant regions) VH: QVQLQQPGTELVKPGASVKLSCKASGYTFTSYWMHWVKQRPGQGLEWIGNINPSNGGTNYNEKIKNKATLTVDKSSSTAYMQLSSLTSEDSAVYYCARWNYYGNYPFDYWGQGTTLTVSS VL: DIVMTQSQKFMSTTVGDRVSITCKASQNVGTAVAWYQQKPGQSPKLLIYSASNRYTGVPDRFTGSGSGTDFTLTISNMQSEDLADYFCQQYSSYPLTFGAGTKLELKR .
-- reply 0.04

-- ask Specify measured OD450 for S009-F2.39.3 (antibody, human IgG1, kappa, V domains shown, Human-murine chimeric antibody: murine VH/VL on human IgG1 heavy and kappa light constant regions) VH: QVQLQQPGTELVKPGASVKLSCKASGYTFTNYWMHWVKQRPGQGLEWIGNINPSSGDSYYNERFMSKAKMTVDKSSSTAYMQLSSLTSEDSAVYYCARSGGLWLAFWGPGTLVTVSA VL: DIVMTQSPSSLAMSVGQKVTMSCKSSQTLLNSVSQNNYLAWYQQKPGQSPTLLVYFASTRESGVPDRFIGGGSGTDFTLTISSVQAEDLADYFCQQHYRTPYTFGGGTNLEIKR .
-- reply 0.05
